Target: human C5aR(CD88) (Homo sapiens)
Construct: expressed in transfected cells; host or cells: rat basophilic leukemia cells (RBL)
Sequence (P21730 1-350): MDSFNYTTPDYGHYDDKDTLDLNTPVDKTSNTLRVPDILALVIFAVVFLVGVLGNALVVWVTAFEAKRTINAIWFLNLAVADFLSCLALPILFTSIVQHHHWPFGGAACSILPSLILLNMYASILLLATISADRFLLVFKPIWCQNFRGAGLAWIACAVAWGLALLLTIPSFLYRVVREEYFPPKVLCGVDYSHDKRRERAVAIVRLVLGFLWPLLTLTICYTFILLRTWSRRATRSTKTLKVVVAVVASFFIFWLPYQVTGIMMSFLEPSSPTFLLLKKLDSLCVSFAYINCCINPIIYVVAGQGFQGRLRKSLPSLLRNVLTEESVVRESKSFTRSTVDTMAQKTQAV
Assay: Determination of the IC50 value in an enzyme release assay (functional assay, antagonistic activity)
Format: cell-based
Details: antagonistic activity; IC50 group in enzyme release assay, RBL cells expressing human C5aR(CD88); read-out: activity (group)
pIC50: −log10 of the molar value. Non-standard residues stand in square brackets, D forms with d. Residues, ends and D or L forms follow the SMILES beside them. Phe(2-Cl) = N[C@@H](Cc1ccccc1Cl)C(=O)O; Bta = N[C@@H](Cc1csc2ccccc12)C(=O)O; d(hLeu) = CC(C)CC[C@@H](N)C(=O)O; dCha = N[C@H](CC1CCCCC1)C(=O)O; Orn = NCCC[C@H](N)C(=O)O; Aze = O=C(O)[C@@H]1CCN1
Readout Name: pIC50

CNC(=O)[C@H](Cc1ccccc1)NC(=O)[C@H](Cc1csc2ccccc12)NC(=O)[C@@H](CC1CCCCC1)NC(=O)[C@@H]1CCN1C(=O)[C@H](CCCN)NC(=O)[C@H](Cc1ccccc1)NC(C)=O [Compound 95, Ac-Phe-Orn-Aze-cha-Bta-Phe-NH—Me] (Ac-F[Orn][Aze][dCha][Bta]F-NHMe) :: 5.70 to 6.70

# get_value(readout='pIC50', item= CC(=O)N[C@@H](Cc1ccccc1)C(=O)N[C@@H](CCCN)C(=O)N1CCC[C@H]1C(=O)N[C@H](CCC(C)C)C(=O)N[C@@H](Cc1ccccc1Cl)C(=O)N[C@@H](Cc1ccccc1)C(N)=O [Compound 294, Ac-Phe-Orn-Pro-hle-Ocf-Phe-NH2] (Ac-F[Orn]P[d(hLeu)][Phe(2-Cl)]F-NH2) )
6.70 to 7.30
